# Tested on: HT29 RAMS11 overexpressing cells
# protocolDetails: High-throughput viability assay (resazurin), 119 FDA-approved anticancer drugs, RAMS11 overexpressing cells (Clone1, Clone2)
# measurementSetup: OE2 (RAMS11 overexpression clone 2), 10 uM drug, 72 h, vs empty vector control
Counter-ions that a name gives are not always drawn.
metricName: Viability Fold Change

Guide cases for Viability Fold Change, answers given:
compound | val
CNC(=O)c1cc(Oc2ccc(NC(=O)Nc3ccc(Cl)c(C(F)(F)F)c3)cc2)ccn1 | 1.017
Nc1nc(F)nc2c1ncn2[C@@H]1O[C@H](CO)[C@@H](O)[C@@H]1O | 1.073
CCN(CC)CCNC(=O)c1c(C)[nH]c(/C=C2\C(=O)Nc3ccc(F)cc32)c1C | 0.5714
Cc1nc(Nc2ncc(C(=O)Nc3c(C)cccc3Cl)s2)cc(N2CCN(CCO)CC2)n1 | 1.607
CCc1c2c(nc3ccc(OC(=O)N4CCC(N5CCCCC5)CC4)cc13)-c1cc3c(c(=O)n1C2)COC(=O)[C@]3(O)CC [Irinotecan HCl] | 1.068

So what's the measured Viability Fold Change for this one? NC(=O)NO [Hydroxyurea] 0.9675

So what's the measured Viability Fold Change for this one? O=C1[O][Pt]2([NH][C@@H]3CCCC[C@H]3[NH]2)[O]C1=O [oxaliplatin, reference compound] 1.427

So what's the measured Viability Fold Change for this one? "NCCCNCCSP(=O)(O)O" 1.167

So what's the measured Viability Fold Change for this one? "CC(C)C[C@H](NC(=O)[C@H](Cc1ccccc1)NC(=O)c1cnccn1)B(O)O" 0.9968

So what's the measured Viability Fold Change for this one? "CNNCc1ccc(C(=O)NC(C)C)cc1" 0.9303

So what's the measured Viability Fold Change for this one? "Cc1cn(-c2cc(NC(=O)c3ccc(C)c(Nc4nccc(-c5cccnc5)n4)c3)cc(C(F)(F)F)c2)cn1" 0.7462

So what's the measured Viability Fold Change for this one? "CNC(=O)c1cc(Oc2ccc(NC(=O)Nc3ccc(Cl)c(C(F)(F)F)c3)c(F)c2)ccn1" 1.143

So what's the measured Viability Fold Change for this one? COc1cc2nccc(Oc3ccc(NC(=O)C4(C(=O)Nc5ccc(F)cc5)CC4)cc3)c2cc1OC [Cabozantinib] 0.8731

So what's the measured Viability Fold Change for this one? CC[C@]1(O)C[C@@H]2CN(CCc3c([nH]c4ccccc34)[C@@](C(=O)OC)(c3cc4c(cc3OC)N(C)[C@H]3[C@@](O)(C(=O)OC)[C@H](OC(C)=O)[C@]5(CC)C=CCN6CC[C@]43[C@@H]65)C2)C1 [Vinblastine sulfate] 3.815

So what's the measured Viability Fold Change for this one? "O=C(CCCCCCC(=O)Nc1ccccc1)NO" 1.356

So what's the measured Viability Fold Change for this one? "CN(C)c1nc(N(C)C)nc(N(C)C)n1" 0.9171

So what's the measured Viability Fold Change for this one? "O=NN(CCCl)C(=O)NCCCl" 1.04
